- Assay details: qHTS assay to test for compound auto fluorescence at 535 nm (green) in HEK293 cells (AID 720680)
- Protocol conditions: green autofluorescence 485/535 nm; series mostly up to 91.3 µM
Activity calls are given as the source filed them. Calls come from the whole dose curve; as a rule, active = well fitted curve in the direction sought with a large enough effect in the repeat runs; inconclusive = weak or mixed curves; inactive = flat fitted curve, though single readings scatter.
Endpoint: outcome

Look over these answered cases.
Compound	outcome
CC(=O)Oc1ccccc1C(=O)O	inactive
CCCCOCCOCCOC(C)=O	inactive
COCC(C)N (centres undefined)	inactive
N[C@@H](Cc1c[nH]c2ccccc12)C(=O)O	inactive
C=C(C)C(N)=O	inactive

Record C=C(C)OC(C)=O , field outcome: inactive

The recorded outcome for entry O=C(O)CCCCC1CCSS1 (centres undefined) equals inactive

// outcome value for CO[C@H]1C=CO[C@@]2(C)Oc3c(C)c(O)c4c(O)c(c(/C=N/N5CCN(C)CC5)c(O)c4c3C2=O)NC(=O)/C(C)=C\C=C[C@H](C)[C@H](O)[C@@H](C)[C@@H](O)[C@@H](C)[C@H](OC(C)=O)[C@@H]1C : inactive

Value of outcome reported for the compound C=CCOC(=O)CC(C)C is inactive

====

- Assay details: qHTS assay for small molecule disruptors of the mitochondrial membrane potential - cell viability (AID 720634); note: nearly all actives have a fitted effect of over 20% in size
- Protocol conditions: HepG2 viability, ATP luminescence (CellTiter-Glo), 1 h; series mostly up to 83.2 µM
Records with an inconclusive call do not appear. Activity calls are given as the source filed them. Calls come from the whole dose curve.
Reply using exactly one outcome from t for active, f for inactive

Q: Give the logged outcome of this assay for the following compound: C=CC(=O)NC(C)(C)CS(=O)(=O)O
Result: f

Q: Answer briefly: the call reported for O=[N+]([O-])c1ccc(O)cc1 in this assay.
Result: f

Q: Record request — test call for CCOC(=O)C(C)(C)Oc1ccc(Cl)cc1
Result: f

Q: Each compound tested received a call. Report the one for Cc1ccc(O)c(-n2nc3ccccc3n2)c1 .
Result: t

====

- Assay details: qHTS assay to identify small molecule antagonists of the estrogen related receptor signaling pathway with the pleiotropic PPARgamma coactivator (PGC) cell viability counter screen (AID 1224822;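 note: viability read after 17.5 h compound exposure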)
- Protocol conditions: ERR/PGC reporter cell line viability counter screen; series mostly up to 46.1 µM
- Procedure: National Center for Advancing Translational Sciences [NCATS] NIH Chemical Genomics Center [NCGC] U.S. Environmental Protection Agency [EPA] National Institutes of Environmental Health Sciences [NIEHS] National Toxicology Program [NTP] […] The PGC/ERR cells were dispensed at 2,000 cells/5 ul/well in 1536-well white plates using a Multidrop dispenser. […] After 30 min incubation at 37 C/5% CO2, the fluorescence intensity in the plates was measured using a ViewLux plate reader.
Results filed as inconclusive are left out. Calls of active or inactive are those of the source. The call rests on the fitted dose curve; in most records, active means well fitted cell-killing curve with a large enough effect in the repeat runs; inconclusive means weak or mixed curves, or effect the other way; inactive means flat fitted curve, though single readings scatter.
Endpoint: outcome

Compound	Result
O=C(O)Cc1cccc2ccccc12	inactive
NC(=O)N/N=C/c1ccc([N+](=O)[O-])o1	inactive
C[C@]12CC[C@@H]3c4ccc(O)cc4CC[C@H]3[C@@H]1CCC2=O	inactive
Cn1cnc2c1c(=O)[nH]c(=O)n2C	inactive
C[C@]12C[C@H](O)[C@H]3[C@@H](CCC4=CC(=O)CC[C@@]43C)[C@@H]1CC[C@@H]2C(=O)CO	inactive
N[C@@H](Cc1c[nH]c2ccc(O)cc12)C(=O)O	inactive

outcome measured on COc1cc2c(c(OC)c1OC)-c1ccc(OC)c(=O)cc1[C@@H](NC(C)=O)CC2 = inactive

Query CC(=O)c1ccc(S(=O)(=O)NC(=O)NC2CCCCC2)cc1 yields outcome of inactive

Measured outcome, NC(=O)OCC(COC(N)=O)c1ccccc1 : inactive

// recorded outcome for CN/C(=C\[N+](=O)[O-])NCCSCc1ccc(CN(C)C)o1 : inactive

// outcome value for COc1ccccc1O : inactive

Lookup result for CC(C)Cc1ccc(C(C)C(=O)O)cc1 (configuration not stated) ; measured outcome: inactive

====

- Study target: Thyrotropin receptor (Homo sapiens) (UniProt P16473)
- Sequence (P16473 whole entry, looked up): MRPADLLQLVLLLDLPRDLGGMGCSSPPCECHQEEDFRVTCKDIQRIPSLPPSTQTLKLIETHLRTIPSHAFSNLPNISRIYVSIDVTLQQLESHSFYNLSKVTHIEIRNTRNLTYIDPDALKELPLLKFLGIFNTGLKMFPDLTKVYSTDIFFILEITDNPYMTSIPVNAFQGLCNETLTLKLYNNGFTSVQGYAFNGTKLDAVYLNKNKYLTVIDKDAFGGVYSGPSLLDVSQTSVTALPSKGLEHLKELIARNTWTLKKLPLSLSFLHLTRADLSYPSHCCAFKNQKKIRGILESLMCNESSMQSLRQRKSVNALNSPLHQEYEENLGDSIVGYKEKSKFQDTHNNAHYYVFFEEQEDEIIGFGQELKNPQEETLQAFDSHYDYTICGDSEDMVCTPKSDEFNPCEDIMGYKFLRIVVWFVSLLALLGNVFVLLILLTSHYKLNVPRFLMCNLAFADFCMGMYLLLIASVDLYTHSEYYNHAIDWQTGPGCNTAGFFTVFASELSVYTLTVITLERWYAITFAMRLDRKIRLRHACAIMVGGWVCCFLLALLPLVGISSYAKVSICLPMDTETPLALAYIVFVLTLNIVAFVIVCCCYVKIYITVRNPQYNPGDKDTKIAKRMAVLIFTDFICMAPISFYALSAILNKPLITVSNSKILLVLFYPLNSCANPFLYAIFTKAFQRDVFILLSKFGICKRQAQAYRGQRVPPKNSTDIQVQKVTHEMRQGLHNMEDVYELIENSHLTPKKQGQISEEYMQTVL
- Assay details: qHTS assay to identify small molecule antagonists of the thyroid stimulating hormone receptor (TSHR) signaling pathway (AID 1259385); note: nearly all actives have a fitted effect of over 20% in size
- Protocol conditions: TSHR-HEK293 cAMP HTRF, TSH-stimulated antagonist mode; series mostly up to 92.4 µM
Results filed as inconclusive are left out. Calls of active or inactive are those of the source. The call rests on the fitted dose curve.
Endpoint: outcome

The cases that follow already have their outcome on record.
OC[C@@H](O)[C@@H](O)[C@H](O)[C@H](O)CO inactive
CCCCOCCOCCSC#N inactive
COC(=O)c1ccc(O)cc1 inactive
N[C@@H](Cc1c[nH]c2ccc(O)cc12)C(=O)O inactive

The molecule Oc1cccc(O)c1 showed outcome equal to inactive

The molecule listed as N[C@@H](Cc1c[nH]c2ccccc12)C(=O)O shows outcome equal to inactive

Form: molecule = COc1cc(O)c(C(=O)c2ccccc2)cc1S(=O)(=O)O ; outcome = inactive

====

- Assay details: Caspase-3/7 induction in HepG2 cells by small molecules, qHTS cell viability counter screen (AID 1346981); note: nearly all actives have a fitted effect of over 30% in size; note: potency is the fitted concentration of half-maximal effect
- Protocol conditions: CellTiter-Fluor fluorescence, 17 h; series mostly up to 92.4 µM
Records with an inconclusive call do not appear. The source made the active and inactive calls. Calls follow the shape of the dose curve; as a rule, active = well fitted cell-killing curve with a large enough effect in the repeat runs; inconclusive = weak or mixed curves, or effect the other way; inactive = flat fitted curve, though single readings scatter.
Endpoint: Potency

Compound	Potency
COC(=O)C1CCC(C(=O)OC)CC1 (configuration not stated)	inactive
O=C(OCc1ccccc1)c1ccccc1	inactive
C1CNCCN1	inactive
O=C1CCCCCN1	inactive

response.value for C=C(C)C(N)=O (field: Potency) = inactive

Data point: CCCCCCCCCCCCCCCCCC(=O)OCC(O)CO (configuration not stated) ; Potency = inactive

Reported Potency of Nc1ccc(N=Nc2ccccc2)c(N)n1 : 21.1 µM (active)

====

- Study target: Androgen receptor (Homo sapiens) (UniProt P10275)
- Sequence (P10275 whole entry, looked up): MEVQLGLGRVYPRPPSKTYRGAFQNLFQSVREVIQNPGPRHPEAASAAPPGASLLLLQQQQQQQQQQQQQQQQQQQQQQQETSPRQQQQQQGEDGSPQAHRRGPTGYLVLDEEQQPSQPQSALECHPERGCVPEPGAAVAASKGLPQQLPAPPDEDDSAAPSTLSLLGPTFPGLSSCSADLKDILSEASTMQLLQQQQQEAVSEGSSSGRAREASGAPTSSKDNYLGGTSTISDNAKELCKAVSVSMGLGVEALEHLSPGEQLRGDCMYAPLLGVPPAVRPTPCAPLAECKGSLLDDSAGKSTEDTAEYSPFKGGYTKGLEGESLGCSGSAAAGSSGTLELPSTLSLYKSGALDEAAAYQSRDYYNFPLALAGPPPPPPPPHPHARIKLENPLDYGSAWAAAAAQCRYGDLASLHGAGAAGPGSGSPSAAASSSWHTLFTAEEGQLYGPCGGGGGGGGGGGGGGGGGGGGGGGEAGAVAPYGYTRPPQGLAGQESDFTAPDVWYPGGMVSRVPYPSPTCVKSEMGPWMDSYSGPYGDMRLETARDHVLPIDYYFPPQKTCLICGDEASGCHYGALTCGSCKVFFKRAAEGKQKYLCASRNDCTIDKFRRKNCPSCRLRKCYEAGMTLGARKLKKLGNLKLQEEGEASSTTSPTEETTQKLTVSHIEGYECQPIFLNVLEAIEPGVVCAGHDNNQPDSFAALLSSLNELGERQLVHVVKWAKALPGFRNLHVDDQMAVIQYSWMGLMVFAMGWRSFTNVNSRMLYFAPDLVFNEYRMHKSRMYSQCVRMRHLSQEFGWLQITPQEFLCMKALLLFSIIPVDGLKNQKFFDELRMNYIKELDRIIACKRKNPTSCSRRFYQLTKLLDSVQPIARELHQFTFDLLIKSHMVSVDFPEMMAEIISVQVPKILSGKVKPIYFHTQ
- Assay details: qHTS assay to identify small molecule antagonists of the androgen receptor (AR) signaling pathway (AID 743035)
- Protocol conditions: HEK293 AR-UAS-bla, R1881-stimulated, beta-lactamase FRET, 16 h; series mostly up to 58.5 µM
Results filed as inconclusive are left out. Activity calls are given as the source filed them. Calls come from the whole dose curve; as a rule, active = well fitted inhibition curve with a large enough effect in the signal ratio in the repeat runs (not every such curve was filed as active); inconclusive = weak or mixed curves, or effect the other way; inactive = no such curve, though single readings can be large or run the other way; the % refers to the signal ratio.
One label from this list, please: T = active, F = inactive

Q: GET /call?item= NCCNc1cccc2ccccc12 returns the recorded outcome of this test.
Result: F

Q: // return assay outcome for CC(=O)Oc1ccccc1C(=O)O
Result: F

Q: Which outcome was entered for the molecule COCCOCCOC in this test?
Result: F

Q: Outcome? COc1ccc(C(=O)c2ccccc2)c(O)c1
Result: F

Q: Hey, what did the test say about COc1cc2c(c(OC)c1OC)-c1ccc(OC)c(=O)cc1[C@@H](NC(C)=O)CC2 ?
Result: T

Q: I would be grateful if you could indicate the recorded call for CN(C)Cc1cc(CN(C)C)c(O)c(CN(C)C)c1 .
Result: F

Q: State the result this test recorded for c1ccc2[nH]c(-c3cscn3)nc2c1 .
Result: F

Q: Returns: the outcome recorded for COCC(C)N (stereo not given) in this assay.
Result: F

Q: GET /call?item= Cc1cccc(Nc2cc(Cl)nc(SCC(=O)O)n2)c1C returns the recorded outcome of this test.
Result: F

Q: Record lookup: outcome of this test for C[C@]12CC[C@@H]3c4ccc(O)cc4C[C@@H](CCCCCCCCCS(=O)CCCC(F)(F)C(F)(F)F)[C@H]3[C@@H]1CC[C@@H]2O (stereo not given in full) ?
Result: F

====

- Assay details: qHTS assay to identify small molecule antagonists of the TGF-beta/Smad signaling pathway - cell viability counter screen (AID 1346824); note: nearly all actives have a fitted effect of over 50% in size
- Protocol conditions: SBE-bla HEK293T viability, CellTiter-Glo luminescence; series mostly up to 76.8 µM
Results filed as inconclusive are left out. The source made the active and inactive calls. The call rests on the fitted dose curve; in most records, active means well fitted cell-killing curve with a large enough effect in the repeat runs; inconclusive means weak or mixed curves; inactive means flat fitted curve, though single readings scatter.
Endpoint: outcome

Some entries whose results are on file:
CCN1CCCC1=O inactive
CCCCCCCCCCCCCC(=O)OC(C)C inactive
C#C[C@]1(O)CC[C@H]2[C@@H]3CCC4=CC(=O)CC[C@@H]4[C@H]3CC[C@@]21CC inactive
NC(N)=NC(N)=NCCc1ccccc1 inactive
CCCCNC(=O)NS(=O)(=O)c1ccc(N)cc1 inactive
COc1ccc(C(=O)c2ccccc2)c(O)c1 inactive

Please find the next molecule below.
Recorded result, CCCCC/C(C=O)=C\c1ccccc1 , outcome: inactive

====

- Assay details: qHTS assay to identify small molecule phospholipidosis (PLD) inducers (AID 1259344)
- Protocol conditions: HepG2 phospholipidosis, LipidTOX Red imaging, 24 h; series mostly up to 38.3 µM
Inconclusive results are not listed. Active and inactive are the calls of the source. Calls follow the shape of the dose curve; as a rule, active = well fitted activation curve with a large enough effect; inconclusive = small, poorly fitted or top-dose-only effect; inactive = flat fitted curve, though single readings scatter.
Endpoint: outcome

Compound	Endpoint	Result
NC(=O)OCC(COC(N)=O)c1ccccc1	outcome	inactive
NC(=O)NO	outcome	inactive
CCCCC/C(C=O)=C\c1ccccc1	outcome	inactive
CC1=NN(c2ccccc2)C(=O)C1	outcome	inactive
COc1ccccc1O	outcome	inactive

Reported outcome of Cn1cnc2c1c(=O)[nH]c(=O)n2C : inactive

So, Cc1c(N(C)C)c(=O)n(-c2ccccc2)n1C ? Its outcome was inactive

// c1ccc2[nH]c(-c3cscn3)nc2c1 : outcome value = inactive

The compound CC(O)COc1ccccc1 (stereo not given) showed outcome equal to inactive

Reported outcome ( CCN1CCCC1=O ) = inactive

Measured outcome of CCCCCCCCOc1ccc(C(=O)c2ccccc2)c(O)c1 : inactive

Entry under test: O=C(OCc1ccccc1)c1ccccc1 . Its outcome was inactive

Given item CCCCNC(=O)NS(=O)(=O)c1ccc(N)cc1 , the value recorded as its outcome is inactive

Consider CN/C(=C\[N+](=O)[O-])NCCSCc1ccc(CN(C)C)o1 . Its measured outcome is inactive

Data point: CC(C)Cc1ccc(C(C)C(=O)O)cc1 (stereo not given) ; outcome = inactive
